biological target: UGT1A6 (Homo sapiens); assay: UGT1A6 inhibition in HLM (N-Acetyl serotonin glucuronidation); format: in vitro ADME; parameters: tissue XenoTech LLC; host or cells: pooled human liver microsomes; details: human, human liver microsomes (HLM), probe N-Acetyl serotonin; HLM, 100 μM test compound
Sequence (P19224 27-532): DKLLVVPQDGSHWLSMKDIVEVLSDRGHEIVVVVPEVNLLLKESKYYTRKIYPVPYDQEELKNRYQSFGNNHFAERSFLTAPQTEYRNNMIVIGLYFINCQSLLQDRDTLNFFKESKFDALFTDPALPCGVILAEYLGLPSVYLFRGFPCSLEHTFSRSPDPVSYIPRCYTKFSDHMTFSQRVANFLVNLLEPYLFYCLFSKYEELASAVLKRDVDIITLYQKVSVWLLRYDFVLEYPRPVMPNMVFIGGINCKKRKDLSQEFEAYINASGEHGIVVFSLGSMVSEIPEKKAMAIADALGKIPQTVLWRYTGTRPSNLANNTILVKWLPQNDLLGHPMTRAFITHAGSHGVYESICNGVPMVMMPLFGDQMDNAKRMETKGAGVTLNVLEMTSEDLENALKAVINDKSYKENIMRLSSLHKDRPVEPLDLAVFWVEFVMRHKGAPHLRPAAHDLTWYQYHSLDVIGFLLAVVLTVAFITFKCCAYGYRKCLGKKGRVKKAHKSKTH
Below: a set of entries, each annotated with reported inhibition at 100 µM.
observation.type: inhibition at 100 µM (%)

compound	meas.value
CCCSc1nc(N[C@@H]2C[C@H]2c2ccc(F)c(F)c2)c2nnn([C@@H]3C[C@H](OCCO)[C@@H](O)[C@H]3O)c2n1	12.7
CCCSc1nc(N[C@@H]2C[C@H]2c2ccc(F)c(F)c2)c2nnn([C@@H]3C[C@H](OCCO[C@@H]4O[C@H](C(=O)O)[C@@H](O)[C@H](O)[C@H]4O)[C@@H](O)[C@H]3O)c2n1 [Ticagrelor-O-Glu, ticagrelor-O-glucuronide]	28.5

----------
Molecular target: CYP3A4 (Homo sapiens, UniProt P08684)
Construct: co-incubation ticagrelor-O-Glu with selective P450 probe substrates in HLM; tissue XenoTech LLC; host or cells: pooled human liver microsomes
Sequence (P08684 whole entry): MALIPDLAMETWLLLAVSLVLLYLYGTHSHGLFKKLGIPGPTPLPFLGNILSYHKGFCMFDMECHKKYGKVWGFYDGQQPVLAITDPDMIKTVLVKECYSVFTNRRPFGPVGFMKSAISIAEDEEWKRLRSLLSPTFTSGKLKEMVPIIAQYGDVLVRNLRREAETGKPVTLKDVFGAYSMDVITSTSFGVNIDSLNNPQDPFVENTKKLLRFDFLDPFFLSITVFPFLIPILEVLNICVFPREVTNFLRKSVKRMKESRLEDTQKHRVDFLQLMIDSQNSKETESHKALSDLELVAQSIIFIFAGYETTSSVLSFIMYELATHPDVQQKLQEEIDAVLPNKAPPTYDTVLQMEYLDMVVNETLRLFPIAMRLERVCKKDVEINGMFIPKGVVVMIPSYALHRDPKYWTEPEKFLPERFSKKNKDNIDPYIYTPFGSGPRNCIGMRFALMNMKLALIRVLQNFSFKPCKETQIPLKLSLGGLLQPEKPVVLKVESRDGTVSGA
Test: CYP3A4 inhibition in HLM (testosterone 6β-hydroxylase)
Assay type: in vitro ADME
Settings: human liver microsomes, pH 7.4, probe testosterone (80 μM), 6β-hydroxy testosterone formation, CYP3A4, testosterone 6β-hydroxylase, HLM 0.2 mg/ml
Procedure: The potential inhibitory effects of ticagrelor-O-Glu on the activities of major CYPs, i.e., CYP2B6, CYP2C8, CYP2C9, CYP2C19, CYP2D6, and CYP3A4, were evaluated by co-incubation ticagrelor-O-Glu with selective P450 probe substrates in HLM. […] The formation of respective metabolites was determined to reflect P450 isoform activities. […] The percent inhibition relative to the control was calculated to indicate the UGTs or CYPs inhibition. […]

compound	IC50
CCCSc1nc(N[C@@H]2C[C@H]2c2ccc(F)c(F)c2)c2nnn([C@@H]3C[C@H](OCCO[C@@H]4O[C@H](C(=O)O)[C@@H](O)[C@H](O)[C@H]4O)[C@@H](O)[C@H]3O)c2n1 [Ticagrelor-O-Glu, ticagrelor-O-glucuronide]	> 100 µM

----------
Biological target: UGT1A9 (Homo sapiens, UniProt O60656)
Sequence (O60656 26-530): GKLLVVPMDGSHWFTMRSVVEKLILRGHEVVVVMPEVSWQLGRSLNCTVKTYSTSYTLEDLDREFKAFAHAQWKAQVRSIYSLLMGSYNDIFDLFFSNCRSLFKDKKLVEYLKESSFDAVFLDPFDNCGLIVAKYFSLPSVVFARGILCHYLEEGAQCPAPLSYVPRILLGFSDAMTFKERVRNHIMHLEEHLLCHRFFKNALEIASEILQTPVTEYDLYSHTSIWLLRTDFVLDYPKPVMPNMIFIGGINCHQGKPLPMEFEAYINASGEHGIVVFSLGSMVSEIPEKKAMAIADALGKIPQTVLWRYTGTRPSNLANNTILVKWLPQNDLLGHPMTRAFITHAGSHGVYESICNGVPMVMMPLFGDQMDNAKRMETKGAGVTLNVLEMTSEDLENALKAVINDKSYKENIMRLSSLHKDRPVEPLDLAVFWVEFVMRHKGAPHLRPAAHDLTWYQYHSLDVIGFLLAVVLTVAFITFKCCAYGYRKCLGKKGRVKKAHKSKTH
Test: Ticagrelor glucuronidation by recombinant human UGT1A9
Format: in vitro ADME
Set-up: purchased BD Gentest; host or cells: baculovirus-infected insect cells
Conditions: recombinant human UGT1A9, pH 7.4
Protocol: Ticagrelor glucuronidation was investigated in an in vitro incubation system by using HLM, HIM, and recombinant human UGTs. […] Kinetic analyses were performed using the mean values of triplicate determinations with either pooled HLM, HIM, or recombinant human UGTs. All data were analyzed by nonlinear regression analysis using the GraphPad Prism 6 (GraphPad Software Inc., CA, United States). […] Intrinsic clearance (CLint) was calculated by dividing Vmax by Km.

smiles.record	microsomal CLint, µL/min/mg
CCCSc1nc(N[C@@H]2C[C@H]2c2ccc(F)c(F)c2)c2nnn([C@@H]3C[C@H](OCCO)[C@@H](O)[C@H]3O)c2n1	0.56

----------
Sequence of the target: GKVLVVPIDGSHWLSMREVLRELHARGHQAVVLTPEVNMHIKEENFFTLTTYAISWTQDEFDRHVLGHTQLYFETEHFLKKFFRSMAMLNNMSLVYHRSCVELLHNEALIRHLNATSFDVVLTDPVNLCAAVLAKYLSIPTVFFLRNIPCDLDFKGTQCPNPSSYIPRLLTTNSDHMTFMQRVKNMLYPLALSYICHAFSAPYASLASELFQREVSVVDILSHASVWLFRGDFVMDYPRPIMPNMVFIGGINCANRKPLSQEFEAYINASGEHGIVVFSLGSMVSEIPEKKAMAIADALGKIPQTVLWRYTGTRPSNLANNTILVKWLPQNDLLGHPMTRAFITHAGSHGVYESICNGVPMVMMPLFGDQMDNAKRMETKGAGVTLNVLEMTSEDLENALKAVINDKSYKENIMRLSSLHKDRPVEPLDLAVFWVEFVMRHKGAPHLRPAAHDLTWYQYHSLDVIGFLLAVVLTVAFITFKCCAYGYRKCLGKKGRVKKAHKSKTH
Below: a set of entries, each annotated with reported IC50.
observation.type: IC50

compound	observation.type	meas.value
CCCSc1nc(N[C@@H]2C[C@H]2c2ccc(F)c(F)c2)c2nnn([C@@H]3C[C@H](OCCO)[C@@H](O)[C@H]3O)c2n1 [Ticagrelor]	IC50	> 100 µM
CCCSc1nc(N[C@@H]2C[C@H]2c2ccc(F)c(F)c2)c2nnn([C@@H]3C[C@H](OCCO[C@@H]4O[C@H](C(=O)O)[C@@H](O)[C@H](O)[C@H]4O)[C@@H](O)[C@H]3O)c2n1 [Ticagrelor-O-Glu, ticagrelor-O-glucuronide]	IC50	> 100 µM

----------
molecular target: CYP2B6 (Homo sapiens); construct: co-incubation ticagrelor-O-Glu with selective P450 probe substrates in HLM; tissue XenoTech LLC; host or cells: pooled human liver microsomes; assay: CYP2B6 inhibition in HLM (bupropion hydroxylase); type: in vitro ADME; conditions: human, human liver microsomes, pH 7.4, probe bupropion (150 μM), hydroxy bupropion formation; HLM, 10 μM ticagrelor-O-Glu
Sequence (P20813 whole entry): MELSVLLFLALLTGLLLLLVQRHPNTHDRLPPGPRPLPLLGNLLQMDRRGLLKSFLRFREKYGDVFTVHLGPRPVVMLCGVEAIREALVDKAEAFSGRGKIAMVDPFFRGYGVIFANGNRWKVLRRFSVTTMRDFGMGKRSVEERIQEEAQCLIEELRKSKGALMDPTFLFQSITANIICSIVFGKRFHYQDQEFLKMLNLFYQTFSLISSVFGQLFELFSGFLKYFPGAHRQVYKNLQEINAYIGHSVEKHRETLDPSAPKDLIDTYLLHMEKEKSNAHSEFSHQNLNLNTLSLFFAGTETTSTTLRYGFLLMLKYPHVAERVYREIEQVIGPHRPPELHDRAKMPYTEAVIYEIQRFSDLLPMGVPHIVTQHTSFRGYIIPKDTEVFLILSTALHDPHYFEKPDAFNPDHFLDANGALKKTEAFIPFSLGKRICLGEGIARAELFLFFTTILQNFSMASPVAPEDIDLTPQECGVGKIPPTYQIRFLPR
observation.type: inhibition at 10 μM (%)

molecule	result.units	meas.value
CCCSc1nc(N[C@@H]2C[C@H]2c2ccc(F)c(F)c2)c2nnn([C@@H]3C[C@H](OCCO[C@@H]4O[C@H](C(=O)O)[C@@H](O)[C@H](O)[C@H]4O)[C@@H](O)[C@H]3O)c2n1 [Ticagrelor-O-Glu, ticagrelor-O-glucuronide]	%	19.1

----------
Target: UGT1A1 (Homo sapiens, UniProt P22309)
Sequence (P22309 26-533): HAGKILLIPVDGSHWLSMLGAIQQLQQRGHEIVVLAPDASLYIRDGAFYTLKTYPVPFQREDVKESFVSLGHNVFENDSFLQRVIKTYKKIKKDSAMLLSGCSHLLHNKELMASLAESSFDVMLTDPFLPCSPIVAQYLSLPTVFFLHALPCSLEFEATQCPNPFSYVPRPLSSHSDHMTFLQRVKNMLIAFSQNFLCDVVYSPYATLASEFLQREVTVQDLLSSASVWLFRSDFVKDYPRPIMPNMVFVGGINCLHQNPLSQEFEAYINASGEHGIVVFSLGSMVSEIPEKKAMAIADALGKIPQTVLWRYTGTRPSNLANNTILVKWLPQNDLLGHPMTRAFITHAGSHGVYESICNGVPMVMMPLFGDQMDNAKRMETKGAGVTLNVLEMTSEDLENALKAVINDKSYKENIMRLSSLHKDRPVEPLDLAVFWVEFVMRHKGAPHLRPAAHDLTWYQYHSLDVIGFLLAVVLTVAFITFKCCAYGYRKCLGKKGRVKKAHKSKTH
Assay: Ticagrelor glucuronidation by recombinant human UGT1A1
Type: in vitro ADME
Parameters: purchased BD Gentest; host or cells: baculovirus-infected insect cells
Details: recombinant human UGT1A1, pH 7.4
Experimental: Ticagrelor glucuronidation was investigated in an in vitro incubation system by using HLM, HIM, and recombinant human UGTs. […] Kinetic analyses were performed using the mean values of triplicate determinations with either pooled HLM, HIM, or recombinant human UGTs. All data were analyzed by nonlinear regression analysis using the GraphPad Prism 6 (GraphPad Software Inc., CA, United States). […] Intrinsic clearance (CLint) was calculated by dividing Vmax by Km.

smiles.record	microsomal CLint
CCCSc1nc(N[C@@H]2C[C@H]2c2ccc(F)c(F)c2)c2nnn([C@@H]3C[C@H](OCCO)[C@@H](O)[C@H]3O)c2n1	0.03 µL/min/mg

----------
target: UGT1A1 (Homo sapiens, UniProt P22309)
Below: a set of entries, each annotated with reported IC50.
observation.type: IC50

compound	system	observation.type	meas.value
CCCSc1nc(N[C@@H]2C[C@H]2c2ccc(F)c(F)c2)c2nnn([C@@H]3C[C@H](OCCO)[C@@H](O)[C@H]3O)c2n1	UGT1A1 (Homo sapiens, UniProt P22309)	IC50	~100 µM
CCCSc1nc(N[C@@H]2C[C@H]2c2ccc(F)c(F)c2)c2nnn([C@@H]3C[C@H](OCCO[C@@H]4O[C@H](C(=O)O)[C@@H](O)[C@H](O)[C@H]4O)[C@@H](O)[C@H]3O)c2n1 [Ticagrelor-O-Glu, ticagrelor-O-glucuronide]	UGT1A1 (Homo sapiens, UniProt P22309)	IC50	> 100 µM

----------
Target: UGT1A4 (Homo sapiens)
Sequence (P22310 29-534): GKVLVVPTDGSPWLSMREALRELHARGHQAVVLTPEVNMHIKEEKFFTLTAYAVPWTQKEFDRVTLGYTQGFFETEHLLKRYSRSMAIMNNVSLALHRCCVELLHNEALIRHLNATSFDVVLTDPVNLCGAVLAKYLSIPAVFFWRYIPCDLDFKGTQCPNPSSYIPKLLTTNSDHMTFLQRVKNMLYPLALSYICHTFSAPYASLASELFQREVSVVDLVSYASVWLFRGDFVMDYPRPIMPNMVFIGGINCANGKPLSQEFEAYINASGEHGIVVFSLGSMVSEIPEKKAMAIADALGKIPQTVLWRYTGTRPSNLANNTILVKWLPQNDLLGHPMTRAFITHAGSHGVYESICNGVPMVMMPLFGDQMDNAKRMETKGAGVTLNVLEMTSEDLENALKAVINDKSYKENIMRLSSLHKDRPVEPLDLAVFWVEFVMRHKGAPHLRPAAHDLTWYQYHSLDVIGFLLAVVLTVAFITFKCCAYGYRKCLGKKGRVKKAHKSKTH
Experiment: Ticagrelor glucuronidation by recombinant human UGT1A4
Type: in vitro ADME
Design: purchased BD Gentest; host or cells: baculovirus-infected insect cells
Conditions: recombinant human UGT1A4, pH 7.4
Protocol: Ticagrelor glucuronidation was investigated in an in vitro incubation system by using HLM, HIM, and recombinant human UGTs. […] Kinetic analyses were performed using the mean values of triplicate determinations with either pooled HLM, HIM, or recombinant human UGTs. All data were analyzed by nonlinear regression analysis using the GraphPad Prism 6 (GraphPad Software Inc., CA, United States). […] Intrinsic clearance (CLint) was calculated by dividing Vmax by Km.

smiles.record	microsomal CLint [µL/min/mg]
CCCSc1nc(N[C@@H]2C[C@H]2c2ccc(F)c(F)c2)c2nnn([C@@H]3C[C@H](OCCO)[C@@H](O)[C@H]3O)c2n1	0.04
